These data points were gathered from PubChem BioAssay (NCI).

tested on: SK-MEL-2 melanoma; test: NCI tumour cell line growth inhibition, 48 h
PARAMETER: TGI

1. N.N.N.N.O=C([O-])CCl.O=C([O-])CCl.[Co+3].[O-][Cl+3]([O-])([O-])[O-]
> 100 µM
2. CC(C)NC(=O)OCc1c(COC(=O)NC(C)C)c(-c2cc[n+](COC(=O)C3CC3)cc2)n2c1CCC2
> 100 µM
3. C[n+]1c2ccc(Cl)cc2nc2cc(-c3ccccc3)ccc21
46.2 µM
4. CC(C)C1=CC23CCC4C(C)(C(=O)O)CCCC4(C)C2CC1C1C(=O)N(c2ccc(Cc4ccc(N5C(=O)C6C7CC8C9(C)CCCC(C)(C(=O)O)C9CCC8(C=C7C(C)C)C6C5=O)cc4)cc2)C(=O)C13 (centres undefined)
26.4 µM
5. COc1cc(C2C3C=CC=C4CC=CC(=C43)C3CCC(=O)N32)cc(OC)c1OC (centres undefined)
> 100 µM
6. Nc1nc(Cl)cc(NCCCCCCCCNc2cc(Cl)nc(N)n2)n1
> 100 µM
7. [N-]=[N+]=NC1(Cc2ccccc2)C(=O)c2cccc3c2N(CCC3)C1=O (centres undefined)
> 100 µM
8. Cc1c(O)ccc2c(O)c(NC(=O)c3ccc4c(c3)CCC(C)(C)O4)c(=O)oc12
> 100 µM

The recorded TGI for CC1=C(C(=O)Nc2ccc(F)c(Cl)c2)C(c2ccccc2O)NC(=S)N1 (centres undefined) is > 50 µM
